- assay.target: Syk (Homo sapiens, UniProt P43405)
- Construct: purchased Carna Biosciences
- assay.method.text: Syk HTRF assay
- Type: biochemical
- measurement.setup: read-out: Activity Level (Syk HTRF assay IC50)
pIC50: −log10 of the molar value.
Measured pIC50 of individual entries

[
  {
    "molecule": "Cc1n[nH]c2cc(Nc3nc4cccc(CN5CC(C)(O)C5)n4n3)ccc12",
    "pIC50": "6.30 to 6.60"
  }
]

Enquiry: # input molecule: c1ccc(-c2cccc3nc(Nc4ccc5cn[nH]c5c4)nn23)cc1 ; wanted: its pIC50
Return: 6.60 to 11.30

Enquiry: And then CN(C)Cc1nc2ccc(Nc3nc4cccc(-c5cccc(F)c5)n4n3)cc2[nH]1 , what is it?
Return: 6.60 to 11.30

Enquiry: Field entry: Cn1ncc2ccc(Nc3nc4cccc(-c5cccc(O)c5)n4n3)cc21
Return: 6.60 to 11.30

Enquiry: And what about the molecule c1ccc(-c2cccc3nc(Nc4ccc5c(c4)CNC5)nn23)cc1 ?
Return: 6.60 to 11.30

Enquiry: Another molecule to check: O[C@H]1CC[C@@H](Nc2cccc3nc(Nc4ccn5ccnc5c4)nn23)CC1
Return: 5.00 to 6.00

###

- assay.target: Syk (Homo sapiens, UniProt P43405)
- Construct: purchased Carna Biosciences
- assay.method.text: Syk HTRF assay
- Type: biochemical
- measurement.setup: activity levels A-D, read-out: Activity Level (IC50 in the Syk HTRF assay)
pIC50: −log10 of the molar value.
// pIC50 lookup, one value per entry

Enquiry: Recorded pIC50 of CC1CN(Cc2cccc3nc(Nc4ccc(C(F)(F)F)cc4)nn23)CC(=O)N1 (centres unmarked) , please.
Return: 5.00 to 6.00

Enquiry: How about this compound: Oc1cc(Nc2nc3cccc(N[C@H]4CC[C@@H](O)CC4)n3n2)ccn1
Return: 5.00 to 6.00

Enquiry: Also check OCCNc1cc(-c2cccc3nc(Nc4ccc(C(F)(F)F)cc4)nn23)ccn1
Return: 6.60 to 11.30

Enquiry: Now this one: C[C@H](NCc1cccc2nc(Nc3ccc(C(F)(F)F)cc3)nn12)C(N)=O
Return: 5.00 to 6.00

Enquiry: And FC(F)(F)c1ccc(Nc2nc3cccc(-c4cnc5nc[nH]c5c4)n3n2)cc1 ?
Return: 6.60 to 11.30

###

Let's look at some compounds and their measured IC50.
- assay.target: Syk (Homo sapiens, UniProt P43405)
- Construct: purchased Carna Biosciences
- assay.method.text: Syk HTRF assay
- Assay type: biochemical
- measurement.setup: activity levels A-D, read-out: Activity Level (IC50 in the Syk HTRF assay)

Enquiry: Quick one: IC50 of O[C@H]1CC[C@@H](Nc2cccc3nc(Nc4cccc(F)c4)nn23)CC1 [Example 355] ?
Return: 0.005 to 250 nM

Enquiry: Thanks! And O[C@H]1CC[C@@H](Nc2cccc3nc(Nc4ccccn4)nn23)CC1 [Example 349] ?
Return: 1000 to 10000 nM

Enquiry: What about CNC(=O)c1ccc(Nc2nc3cccc(CC4CCC(O)C4)n3n2)cc1 (single isomer, unassigned; diastereomer 1) [Example 232] ?
Return: 1000 to 10000 nM

###

- assay.target: Syk (Homo sapiens, UniProt P43405)
- Construct: purchased Carna Biosciences
- assay.method.text: Syk HTRF assay
- Format: biochemical
- measurement.setup: IC50 activity level, read-out: Activity Level
recorded.metric: IC50

Example cases with answers are listed next.
[
  {
    "compound": "NCCNc1cc(-c2cccc3nc(Nc4ccccc4)nn23)ccn1",
    "assay.value": "0.005 to 250 nM"
  },
  {
    "compound": "NCCN1Cc2ccc(-c3cccc4nc(Nc5ccccc5)nn34)cc2C1=O",
    "assay.value": "1000 to 10000 nM"
  },
  {
    "compound": "NC(=O)c1ccc(Nc2nc3cccc(NC4CCC(N)CC4)n3n2)cc1 (stereo in doubt)",
    "assay.value": "0.005 to 250 nM"
  },
  {
    "compound": "Nc1cc(-c2cccc3nc(Nc4ccccc4)nn23)ccn1",
    "assay.value": "0.005 to 250 nM"
  },
  {
    "compound": "CNCc1nc2ccc(-c3cccc4nc(Nc5ccc(F)cc5)nn34)cc2[nH]1",
    "assay.value": "0.005 to 250 nM"
  }
]

Enquiry: Need IC50, item N[C@H]1CC[C@H](Nc2cccc3nc(Nc4ccccc4)nn23)CC1 (stereo in doubt)
Return: 500 to 1000 nM

Enquiry: # iterate: NCCOc1cc(-c2cccc3nc(Nc4ccccc4)nn23)ccn1
Return: 250 to 500 nM

Enquiry: O[C@@H]1CC[C@H](Nc2cccc3nc(Nc4ccc(C(F)(F)F)cc4)nn23)C1 ?
Return: 250 to 500 nM

Enquiry: What about this compound? O=C(c1ccccc1)c1cccc2nc(Nc3ccccc3)nn12
Return: 1000 to 10000 nM

Enquiry: Then what about the compound OC(c1cccnc1)c1cccc2nc(Nc3ccccc3)nn12 (stereo not drawn) ?
Return: 250 to 500 nM

Enquiry: Then what about the compound Cn1ncc2ccc(Nc3nc4cccc(N[C@H]5CCCNC5)n4n3)cc21 ?
Return: 0.005 to 250 nM

Enquiry: Param item: CC(C)(C)OC(=O)N1C(=O)C(C)(C)c2ccc(Nc3nc4cccc(N[C@H]5CC[C@@H](O)CC5)n4n3)cc21
Return: 0.005 to 250 nM

Enquiry: Let us now turn to c1ccc(Nc2nc3cccc(-c4ccc5[nH]ncc5c4)n3n2)cc1
Return: 500 to 1000 nM

Enquiry: Record: Cc1nnc2cc(Nc3nc4cccc(N[C@H]5CC[C@@H](O)CC5)n4n3)ccn12
Return: 0.005 to 250 nM

Enquiry: Subsequent entry: Cc1n[nH]c2cc(Nc3nc4cccc(C(F)(F)C5CCOCC5)n4n3)ccc12
Return: 0.005 to 250 nM

###

Entries and their IC50
- assay.target: Syk (Homo sapiens)
- Construct: purchased Carna Biosciences
- assay.method.text: Syk HTRF assay
- Assay type: biochemical
- measurement.setup: IC50 activity level, read-out: Activity Level

[
  {
    "molecule": "c1cc(NC2CCCNC2)n2nc(Nc3ccc4c(c3)CNC4)nc2c1 (stereo in doubt)",
    "assay.target": "Syk (Homo sapiens)",
    "IC50": "1000 to 10000 nM"
  },
  {
    "molecule": "O[C@H]1CC[C@@H](Nc2cccc3nc(Nc4cnc5cn[nH]c5c4)nn23)CC1",
    "assay.target": "Syk (Homo sapiens)",
    "IC50": "0.005 to 250 nM"
  },
  {
    "molecule": "c1cc(N[C@@H]2CCCNC2)n2nc(Nc3ccc4cn[nH]c4c3)nc2c1",
    "assay.target": "Syk (Homo sapiens)",
    "IC50": "0.005 to 250 nM"
  },
  {
    "molecule": "c1cc(N[C@@H]2CCCNC2)n2nc(Nc3ccc4nn[nH]c4c3)nc2c1",
    "assay.target": "Syk (Homo sapiens)",
    "IC50": "250 to 500 nM"
  },
  {
    "molecule": "Oc1cc(-c2cccc3nc(Nc4ccccc4)nn23)ccn1",
    "assay.target": "Syk (Homo sapiens)",
    "IC50": "1000 to 10000 nM"
  }
]

Enquiry: Entry Cc1cc(Nc2nc3cccc(N[C@H]4CC[C@@H](O)CC4)n3n2)c2c(c1)N(C)C(=O)C2 has what IC50?
Return: 500 to 1000 nM

Enquiry: What about this molecule? CNC(=O)c1ccc(Nc2nc3cccc(-c4ccc5nn[nH]c5c4)n3n2)cc1
Return: 0.005 to 250 nM

Enquiry: Next molecule up: FC(F)(F)c1ccc(Nc2nc3cccc(N[C@@H]4CCCNC4)n3n2)cc1
Return: 500 to 1000 nM

Enquiry: Query Fc1ccc(Nc2nc3cccc(NC4CCCCNC4)n3n2)cc1 (centres unmarked) next
Return: 250 to 500 nM

Enquiry: Also CC(=O)Nc1cccc2nc(Nc3ccccc3)nn12 , if possible.
Return: 500 to 1000 nM

###

- assay.target: Syk (Homo sapiens, UniProt P43405)
- Construct: purchased Carna Biosciences
- assay.method.text: Syk HTRF assay
- Type: biochemical
- measurement.setup: activity levels A-D, read-out: Activity Level (IC50 in the Syk HTRF assay)
pIC50: −log10 of the molar value.
# key: entry, value: pIC50

Enquiry: I am curious: what pIC50 value has been reported for CNC(=O)c1ccc(Nc2nc3cccc(C[C@H]4CC[C@@H](O)C4)n3n2)cc1 (single isomer, unassigned; diastereomer 2) ?
Return: 5.00 to 6.00

Enquiry: Subsequent entry: CNC(=O)c1ccc(Nc2nc3cccc(NC4CCC(N)CC4)n3n2)cc1 (stereo in doubt)
Return: 6.30 to 6.60

Enquiry: Then OC[C@@H]1CCCN1c1cccc2nc(Nc3ccc(C(F)(F)F)cc3)nn12 ?
Return: 5.00 to 6.00

Values from patent US8299056B2
